System: SF-268 CNS
Assay summary: NCI-60 one-dose screen, 48 h (100 = growth as untreated, 0 = no growth, -100 = all killed)
Condition details: 10 µM unless noted
Compounds without any hit were thinned out: in the full panel of roughly 83,000, 20% have a hit.
Metric: growth (%)
Answer in %, number only, no unit symbol.

Q) State its growth: `CC(C)C(=O)Nc1n[nH]c2cc(-c3cccc(NS(=O)(=O)C4CC4)c3)ccc12`
A) 76.1

Q) Dear colleague, please send me the reported growth for `COc1ccc2[nH]c(O)c(C(=Nc3ccc(N(C)C(=O)CN4CCN(C)CC4)cc3)c3ccccc3)c2c1` when you can.
A) 30.7

Q) Assign growth to the following record: `Cc1nc2ccccc2c(/C=C/c2ccc(Cl)cc2)c1C(=O)/C=C/c1ccc(F)cc1`
A) 48.6

Q) Determine from records and report growth for `c1csc(-c2c3ccc(=[N+]4CCCCC4)cc-3oc3cc(N4CCCCC4)ccc23)c1`
A) -88.8

Q) Item `COc1ccc2cc(-c3cc(OC)c(OC)c(OC)c3)c(=O)oc2c1` : provide growth
A) 89.7

Q) Give the measured growth for `Clc1cc(Cl)cc(Nc2ccc3cc(OCCCN4CCOCC4)ccc3n2)c1`
A) 46.9

Q) Note down growth recorded for `CN(C)c1ccc(/C=C/C(=O)c2cccc(Nc3nc(Nc4ccccc4)nc(Nc4ccccc4)n3)c2)cc1`
A) 97.2

Q) Determine from records and report growth for `Clc1cccc(Cl)c1/C=C/c1cc(/C=C/c2c(Cl)cccc2Cl)[nH]n1`
A) 53.2

Q) Supply growth value. Item: Cc1ccc(C2SCC(=O)N2Cc2ccccc2)cc1 (centres undefined)
A) 115

Q) Indicate the recorded growth value for this compound: `CCCCCCCCCCN(CCCCCCCCCC)CC(=O)c1ccc2cc(Br)c3ccccc3c2c1`
A) 81

Q) Tell me its growth given `COc1ccc2c(c1)O/C(=C\c1cccc(OCC(=O)Nc3nc4ccccc4s3)c1)C2=O` as the entry.
A) 24.2

Q) # return recorded growth for entry `COC1=CC(=O)C[C@@H](C)[C@]12Oc1c(Cl)c(OC)cc(OC)c1C2=O`
A) 93.5

Q) Determine from records and report growth for `Oc1c(CN2CCCC2)cc(COCc2ccc(Br)cc2)c2cccnc12`
A) 10.8

Q) Using the record for `Cc1cccc(NC(=O)N/C(N)=N/c2nc(C)c(C)s2)c1` , state its measured growth.
A) 75.1

Q) Output measured growth for this item: CC1CC(C(C)(C)C)C(=O)C(C(C)(C)C)C1 (centres undefined)
A) 103

Q) Respond only with growth recorded for `N#Cc1c(N2CCNCC2)nc2sc3cc(Cl)c(Cl)cc3n2c1=N`
A) 117

Q) Give me measured growth, please, for this compound: `C[C@H]1[C@H]2[C@H]3CC[C@@H]4[C@@]5(C)C/C(=C/c6cccnc6)C(=O)C(C)(C)[C@@H]5CC[C@@]4(C)[C@]3(C)CC[C@]23CO[C@]1(C)[C@@H](C(=O)/C=C\c1cccnc1)C3`
A) 7.1

Q) Look up growth of `CCCCn1c(=O)c2c(nc(NCCc3ccc(O)c(O)c3)n2CCC)n(CCCC)c1=O` and report it.
A) 74.6

Q) Give recorded growth. `Cc1cc(Cl)ccc1Nc1nc(C(F)(F)F)ccc1C(=O)N/N=C/c1ccc(N(C)C)cc1`
A) 31.8
